Molecular target: IRAK4 (Homo sapiens)
Construct: endogenous in cells; host or cells: Karpas299
Assay: IRAK4 Degradation Assay (Karpas299, HTRF/TR-FRET)
Type: cell-based
Conditions: Karpas-299 cells, 5 h treatment; maximum percentage of degradation; read-out: IRAK4 in Karpas-299 (5 h) Dmax (%)
endpoint_label: Dmax (%)
The figure you give is taken to be in %; do not add the unit.

Record excerpt, results attached:
compound | unit_info | Dmax
CC(C)(O)c1cc2nn([C@H]3CC[C@H](N4CCN(C(=O)C5CN(c6cc(F)c([C@H]7CCC(=O)NC7=O)c(F)c6)C5)CC4)CC3)cc2cc1NC(=O)c1ccc2cc(C#N)cnn12 [Example 178] | % | 97
O=C1CC[C@H](c2c(F)cc(N3CC(C(=O)N4CCN([C@H]5CC[C@H](n6cc(NC(=O)c7cnn(-c8ccnc(NCC(F)(F)F)c8)n7)c(C(F)F)n6)CC5)CC4)C3)cc2F)C(=O)N1 [Example 51] | % | 93
CC(C)(O)c1cc2nn([C@H]3CC[C@H](N4CCN(CCNc5cc(F)c([C@H]6CCC(=O)NC6=O)c(F)c5)CC4)CC3)cc2cc1NC(=O)c1ccc2cc(C#N)cnn12 [Example 194] | % | 93
O=C1CC[C@H](c2c(F)cc(N3CC(C(=O)N4CCN([C@H]5CC[C@H](n6cc7cc(NC(=O)c8cccc(C(F)(F)F)n8)c(C(=O)N[C@H]8C[C@H](CO)C8)cc7n6)CC5)CC4)C3)cc2F)C(=O)N1 [Example 167] | % | 94

Supply measured Dmax of COc1cc2nn([C@H]3CC[C@H](N4CCN(C(=O)C5CN(c6cc(F)c(N7CCC(=O)NC7=O)c(F)c6)C5)CC4)CC3)cc2cc1NC(=O)c1cccc(C(F)(F)F)n1 [Example 176] in your reply.
96

Supply measured Dmax of NC(=O)c1nn([C@H]2CC[C@H](N3CCN(C(=O)C4CN(c5cc(F)c([C@H]6CCC(=O)NC6=O)c(F)c5)C4)CC3)CC2)cc1NC(=O)c1coc(-c2ccnc(NCC(F)(F)F)c2)n1 [Example 11] in your reply.
94

Supply measured Dmax of CC(C)(O)c1cc2nn([C@H]3CC[C@H](N4CCN(CCc5cc(F)c([C@H]6CCC(=O)NC6=O)c(F)c5)CC4)CC3)cc2cc1NC(=O)c1ccc2cc(C#N)cnn12 [Example 182] in your reply.
96

Supply measured Dmax of CC(C)(O)c1cc2nn([C@H]3CC[C@H](N4CCN(C(=O)[C@@H]5CCN(c6cc(F)c([C@H]7CCC(=O)NC7=O)c(F)c6)C5)CC4)CC3)cc2cc1NC(=O)c1ccc2cc(C#N)cnn12 [Example 181] in your reply.
97

Supply measured Dmax of CC(C)(O)c1cc2nc(C3CCN(C4CCN(C(=O)[C@@H]5CCN(c6cc(F)c([C@H]7CCC(=O)NC7=O)c(F)c6)C5)CC4)CC3)cn2cc1NC(=O)c1cccc(C(F)(F)F)n1 [Example 127] in your reply.
94

---

Entries and their DC50 values follow.
Molecular target: IRAK4 (Homo sapiens, UniProt Q9NWZ3)
Construct: endogenous in cells; host or cells: Karpas299
Sequence (Q9NWZ3 whole entry): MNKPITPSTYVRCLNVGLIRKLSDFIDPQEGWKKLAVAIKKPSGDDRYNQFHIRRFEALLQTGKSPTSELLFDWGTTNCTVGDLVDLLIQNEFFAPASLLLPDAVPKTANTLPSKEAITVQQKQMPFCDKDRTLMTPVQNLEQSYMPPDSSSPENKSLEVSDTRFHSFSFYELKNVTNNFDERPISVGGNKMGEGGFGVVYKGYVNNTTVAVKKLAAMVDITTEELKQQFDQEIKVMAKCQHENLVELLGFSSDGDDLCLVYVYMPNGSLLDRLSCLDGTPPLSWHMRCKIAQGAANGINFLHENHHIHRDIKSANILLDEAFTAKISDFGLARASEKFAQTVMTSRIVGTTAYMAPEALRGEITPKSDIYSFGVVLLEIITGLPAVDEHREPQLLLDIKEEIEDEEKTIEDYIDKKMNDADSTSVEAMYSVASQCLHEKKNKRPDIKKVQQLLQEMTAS
Test: IRAK4 Degradation Assay (Karpas299, HTRF/TR-FRET)
Type: cell-based
Conditions: Karpas-299 cells, 24 h treatment; read-out: IRAK4 in Karpas-299 (24 h) DC50
The figure you give is taken to be in nM; do not add the unit.

compound | system_tested | DC50, nM
COc1cc2nn([C@H]3CC[C@H](N4CCN(C(=O)C5CN(c6cc(F)c(N7CCC(=O)NC7=O)c(F)c6)C5)CC4)CC3)cc2cc1NC(=O)c1cccc(C(F)(F)F)n1 | IRAK4 (Homo sapiens, UniProt Q9NWZ3) | 1.6
CC(C)(O)c1cc2nn([C@H]3CC[C@H](N4CCN(c5ccc(CCC(=O)NC6CCC(=O)NC6=O)cc5)CC4)CC3)cc2cc1NC(=O)c1ccc2cc(C#N)cnn12 (stereo partly drawn) | IRAK4 (Homo sapiens, UniProt Q9NWZ3) | 183

Supply measured DC50 of `O=C1CCN(c2ccc(N3CC[C@@H](C(=O)N4CCN([C@H]5CC[C@H](n6cc(NC(=O)c7coc(-c8ccnc(NCC(F)(F)F)c8)n7)c(C(F)F)n6)CC5)CC4)C3)cc2)C(=O)N1` in your reply.
3.4

This collection of values is drawn from patent US20250195513A1.
